# MEASUREMENT TARGET: UniProtKB P35968
# Sequence (P35968 whole entry): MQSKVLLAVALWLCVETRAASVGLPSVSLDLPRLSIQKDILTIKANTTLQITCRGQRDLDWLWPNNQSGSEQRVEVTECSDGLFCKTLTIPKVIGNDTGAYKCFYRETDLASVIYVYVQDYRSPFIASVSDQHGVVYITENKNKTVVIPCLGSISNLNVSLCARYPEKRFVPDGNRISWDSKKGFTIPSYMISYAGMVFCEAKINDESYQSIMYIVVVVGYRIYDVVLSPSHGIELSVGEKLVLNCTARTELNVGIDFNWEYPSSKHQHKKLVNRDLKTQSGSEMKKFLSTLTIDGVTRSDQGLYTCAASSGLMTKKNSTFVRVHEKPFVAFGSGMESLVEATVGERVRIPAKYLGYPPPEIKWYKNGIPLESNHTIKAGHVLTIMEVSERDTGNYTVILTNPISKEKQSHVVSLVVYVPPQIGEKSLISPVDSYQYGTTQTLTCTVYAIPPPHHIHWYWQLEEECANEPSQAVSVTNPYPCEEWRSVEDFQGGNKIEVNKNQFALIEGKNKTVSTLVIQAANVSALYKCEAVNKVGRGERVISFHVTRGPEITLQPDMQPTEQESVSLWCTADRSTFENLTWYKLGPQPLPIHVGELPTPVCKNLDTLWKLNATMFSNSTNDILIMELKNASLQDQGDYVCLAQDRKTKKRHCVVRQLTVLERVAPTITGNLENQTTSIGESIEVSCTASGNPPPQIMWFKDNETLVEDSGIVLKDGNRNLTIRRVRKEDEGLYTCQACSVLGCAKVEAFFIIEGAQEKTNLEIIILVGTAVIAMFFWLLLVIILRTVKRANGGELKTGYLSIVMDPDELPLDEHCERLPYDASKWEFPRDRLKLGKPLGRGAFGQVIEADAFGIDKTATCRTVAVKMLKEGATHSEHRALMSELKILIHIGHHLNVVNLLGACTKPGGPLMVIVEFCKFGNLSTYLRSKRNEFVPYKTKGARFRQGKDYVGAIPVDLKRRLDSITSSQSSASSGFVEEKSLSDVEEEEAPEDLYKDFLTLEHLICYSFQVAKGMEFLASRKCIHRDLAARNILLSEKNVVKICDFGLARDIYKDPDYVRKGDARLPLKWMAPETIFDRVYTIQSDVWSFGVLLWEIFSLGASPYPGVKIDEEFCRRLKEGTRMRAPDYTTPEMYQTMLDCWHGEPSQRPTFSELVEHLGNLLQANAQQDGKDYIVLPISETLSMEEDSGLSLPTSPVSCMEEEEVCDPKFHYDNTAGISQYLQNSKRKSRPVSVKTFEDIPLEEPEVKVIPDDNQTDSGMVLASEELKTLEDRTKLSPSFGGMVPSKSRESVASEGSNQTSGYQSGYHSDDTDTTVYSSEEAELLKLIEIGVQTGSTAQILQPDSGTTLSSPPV
MEASURED ATTRIBUTE: pIC50
As a rule, pIC50 stands for the negative log10 of the concentration, concentration in M.

Return pIC50 (reported value) for this compound: "COc1cc2c(Nc3ccc(Br)cc3F)ncnc2cc1OC[C@@H]1CCCN(CCF)C1" 7.40
